List of folding stability dG values.
B1: 2M8U (parent)
chain: TKAQVIEAFKVFDRDGNGYVTVDYLRKVLNELGDMMPADEIEEMIYEADPQNSGYVQYETFVGMLFL

variants of: B1; experiment: folding stability dG (cDNA display proteolysis); higher = more stable; settings: PBS, room temperature
readout.label: folding stability dG (kcal/mol)

• P50I = 3.23
• D34N = 3.58
• Y19Q = 2.91
• A38H = 3.57
• Q51E = 3.48
• A38K = 3.69
• G54N = 2.9
• E59M = 3.93
• Q4T = 3.04
• F9H = 2.14
• D39M = 3.92
• T21I = 2.89
• G54V = 2.48
• E43A = 3.81
• G18T = 2.38
• I6E = 2.81
• D49Q = 2.53
• M64K = 4.14
• E42F = 3.06
• I6S = 2.25
